Species: Rattus norvegicus
Procedure Details: Open TG-GATES - Regimen: Daily Repeat
Assay type: toxicity, organism-based, Sprague-Dawley
Design: regimen Daily Repeat, gender Male, age 6 weeks
Test Settings: in vivo, po, 0 mg/kg, […], tissue Plasma, route gavage, dose level Control, time 7 day
// values below are reported Cl
Measured Endpoint: Cl (meq/L)

* O=C(O)c1cccnc1 [NIACIN] | 105.2
* CC(=O)Oc1cc(C(C)C)c(OCCN(C)C)cc1C [MOXISYLYTE] | 106.6
* C[C@]12CCC(=O)C=C1CC[C@@H]1[C@@H]2CC[C@@]2(C)[C@H]1CC[C@]2(C)O [METHYLTESTOSTERONE] | 104.8
* CCN1CCCC1CNC(=O)c1cc(S(N)(=O)=O)ccc1OC (stereo not given) [SULPIRIDE] | 104.4
* CCSCC[C@H](N)C(=O)O [ETHIONINE] | 103.2

====

Species on record: Rattus norvegicus
Procedure Details: Open TG-GATES - Regimen: Single
Type: toxicity, organism-based, Sprague-Dawley
Parameters: regimen Single, gender Male, age 6 weeks
Test Settings: in vivo, po, 0 mg/kg, 6 h, tissue Blood, route gavage, dose level Control
// values below are reported Fbg
Measured Endpoint: Fbg (mg/dL)

• C[C@]12CCC(=O)C=C1CC[C@@H]1[C@@H]2CC[C@@]2(C)[C@H]1CC[C@]2(C)O = 299
• CCc1oc2ccccc2c1C(=O)c1cc(I)c(O)c(I)c1 = 204.4
• Oc1ncnc2[nH]ncc12 = 212.6
• Nc1nc(N)c2nc(-c3ccccc3)c(N)nc2n1 = 302.8
• C[C@](N)(Cc1ccc(O)c(O)c1)C(=O)O = 266.8
• CC(=N)S [THIOACETAMIDE] = 221.6
• O=C(O)c1cccnc1 = 304
• CCSCC[C@H](N)C(=O)O = 229
• CN1C(=O)OC(C)(C)C1=O = 284.2
• O=C(N[C@H](CO)[C@H](O)c1ccc([N+](=O)[O-])cc1)C(Cl)Cl = 262.8
• CCN1CCCC1CNC(=O)c1cc(S(N)(=O)=O)ccc1OC (stereo unspecified) [SULPIRIDE] = 276.2
• C#C[C@]1(O)CC[C@H]2[C@@H]3CCc4cc(O)ccc4[C@H]3CC[C@@]21C = 265.8
• CC(C)(S)[C@@H](N)C(=O)O = 301.2
• CCC(C)(C)C(=O)O[C@H]1C[C@@H](C)C=C2C=C[C@H](C)[C@H](CC[C@@H]3C[C@@H](O)CC(=O)O3)[C@H]21 = 208.2
• CC(=O)Oc1cc(C(C)C)c(OCCN(C)C)cc1C = 338.6
• CC(C)C(=O)Nc1ccc([N+](=O)[O-])c(C(F)(F)F)c1 [FLUTAMIDE] = 228

====

Organism: Rattus norvegicus
Procedure Details: Open TG-GATES - Regimen: Daily Repeat
Format: toxicity, organism-based, Sprague-Dawley
Set-up: regimen Daily Repeat, gender Male, age 6 weeks
Test Settings: in vivo, po, 300 mg/kg, 72 h, tissue Blood, route gavage, dose level Middle, time 3 day
Measured Endpoint: Bas (%)

* O=C(O)c1cccnc1 [NIACIN] | 0
* O=C(N[C@H](CO)[C@H](O)c1ccc([N+](=O)[O-])cc1)C(Cl)Cl [CHLORAMPHENICOL] | 0
* CC(C)(S)[C@@H](N)C(=O)O [PENICILLAMINE] | 0.4
* CCN1CCCC1CNC(=O)c1cc(S(N)(=O)=O)ccc1OC (centres undefined) [SULPIRIDE] | 0

These data points were gathered from ChEMBL document CHEMBL3885861.
